assayed_system: ZFP SBS#233 (synthetic)
Sequence (chain, as listed by the source): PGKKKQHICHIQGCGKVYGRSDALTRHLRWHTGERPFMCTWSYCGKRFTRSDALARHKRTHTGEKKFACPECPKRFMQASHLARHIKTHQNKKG
test_description: EMSA
experimental_context: tags: MBP fusion

binder | result_units | Kd
GGTGTGGTG (dsDNA) DNA 1: GGTGTGGTG DNA 2: CACCACACC | nM | 100
